# Test system: Streptococcus sp. group D X66
# Experimental details: MIC, standard agar-dilution assay
# Format: cell-based
# Condition: Streptococcus, read-out: minimal inhibitory concentration (MIC)
// values below are reported MIC

| Molecule | Tgt | MIC |
| --- | --- | --- |
| CCOC(=O)C1CC1CN[C@@H]1[C@H](C)[C@@H](O)[C@](C)(O)[C@@H](CC)OC(=O)[C@H](C)[C@@H](O[C@H]2C[C@@](C)(OC)[C@@H](O)[C@H](C)O2)[C@H](C)[C@@H](O[C@@H]2O[C@H](C)C[C@H](N(C)C)[C@H]2O)[C@](C)(O)C[C@H]1C (stereo partly drawn) [Compound 27] | Streptococcus sp. group D X66 | 0.125 µg/mL |
| CC[C@H]1OC(=O)[C@H](C)[C@@H](O[C@H]2C[C@@](C)(OC)[C@@H](O)[C@H](C)O2)[C@H](C)[C@@H](O[C@@H]2O[C@H](C)C[C@H](N(C)C)[C@H]2O)[C@](C)(O)C[C@@H](C)[C@H](NCCC2=C(C)CCCC2(C)C)[C@H](C)[C@@H](O)[C@]1(C)O [Compound 30] | Streptococcus sp. group D X66 | 0.125 µg/mL |
| CCCCCN[C@@H]1[C@H](C)[C@@H](O)[C@](C)(O)[C@@H](CC)OC(=O)[C@H](C)[C@@H](O[C@H]2C[C@@](C)(OC)[C@@H](O)[C@H](C)O2)[C@H](C)[C@@H](O[C@@H]2O[C@H](C)C[C@H](N(C)C)[C@H]2O)[C@](C)(O)C[C@H]1C [Compound 5, 9-Deoxo-9-(n-pentylamino)erythromycin] | Streptococcus sp. group D X66 | 0.125 µg/mL |
| CC[C@H]1OC(=O)[C@H](C)[C@@H](O[C@H]2C[C@@](C)(OC)[C@@H](O)[C@H](C)O2)[C@H](C)[C@@H](O[C@@H]2O[C@H](C)C[C@H](N(C)C)[C@H]2O)[C@](C)(O)C[C@@H](C)[C@H]2[C@H](C)[C@@H](OCN2C(C)CCCN(C)C)[C@]1(C)O (stereo partly drawn) [Compound 63] | Streptococcus sp. group D X66 | 2 µg/mL |
| CC[C@H]1OC(=O)[C@H](C)[C@@H](O[C@H]2C[C@@](C)(OC)[C@@H](O)[C@H](C)O2)[C@H](C)[C@@H](O[C@@H]2O[C@H](C)C[C@H](N(C)C)[C@H]2O)[C@](C)(O)C[C@@H](C)[C@H](NCCCC#N)[C@H](C)[C@@H](O)[C@]1(C)O [Compound 29] | Streptococcus sp. group D X66 | 0.125 µg/mL |
| C=CCCCCCCCCCN[C@@H]1[C@H](C)[C@@H](O)[C@](C)(O)[C@@H](CC)OC(=O)[C@H](C)[C@@H](O[C@H]2C[C@@](C)(OC)[C@@H](O)[C@H](C)O2)[C@H](C)[C@@H](O[C@@H]2O[C@H](C)C[C@H](N(C)C)[C@H]2O)[C@](C)(O)C[C@H]1C [Compound 28] | Streptococcus sp. group D X66 | 0.125 µg/mL |
| CC[C@H]1OC(=O)[C@H](C)[C@@H](O[C@H]2C[C@@](C)(OC)[C@@H](O)[C@H](C)O2)[C@H](C)[C@@H](O[C@@H]2O[C@H](C)C[C@H](N(C)C)[C@H]2O)[C@](C)(O)C[C@@H](C)[C@H](N(C)C2CCCCC2)[C@H](C)[C@@H](O)[C@]1(C)O [Compound 71] | Streptococcus sp. group D X66 | 8 µg/mL |
| CC[C@H]1OC(=O)[C@H](C)[C@@H](O[C@H]2C[C@@](C)(OC)[C@@H](O)[C@H](C)O2)[C@H](C)[C@@H](O[C@@H]2O[C@H](C)C[C@H](N(C)C)[C@H]2O)[C@](C)(O)C[C@@H](C)[C@H](NCCOCCOC)[C@H](C)[C@@H](O)[C@H]1C [Compound 49] | Streptococcus sp. group D X66 | 0.25 µg/mL |
| CCCCN[C@@H]1[C@H](C)[C@@H](O)[C@](C)(O)[C@@H](CC)OC(=O)[C@H](C)[C@@H](O[C@H]2C[C@@](C)(OC)[C@@H](O)[C@H](C)O2)[C@H](C)[C@@H](O[C@@H]2O[C@H](C)C[C@H](N(C)C)[C@H]2O)[C@](C)(O)C[C@H]1C [Compound 4, 9-Deoxo-9-(n-butylamino)erythromycin] | Streptococcus sp. group D X66 | 0.125 µg/mL |
